SYSTEM: recombinant human SAE enzyme (Homo sapiens (Human), UniProt Q9UBT2)
Sequence (Q9UBT2 whole entry): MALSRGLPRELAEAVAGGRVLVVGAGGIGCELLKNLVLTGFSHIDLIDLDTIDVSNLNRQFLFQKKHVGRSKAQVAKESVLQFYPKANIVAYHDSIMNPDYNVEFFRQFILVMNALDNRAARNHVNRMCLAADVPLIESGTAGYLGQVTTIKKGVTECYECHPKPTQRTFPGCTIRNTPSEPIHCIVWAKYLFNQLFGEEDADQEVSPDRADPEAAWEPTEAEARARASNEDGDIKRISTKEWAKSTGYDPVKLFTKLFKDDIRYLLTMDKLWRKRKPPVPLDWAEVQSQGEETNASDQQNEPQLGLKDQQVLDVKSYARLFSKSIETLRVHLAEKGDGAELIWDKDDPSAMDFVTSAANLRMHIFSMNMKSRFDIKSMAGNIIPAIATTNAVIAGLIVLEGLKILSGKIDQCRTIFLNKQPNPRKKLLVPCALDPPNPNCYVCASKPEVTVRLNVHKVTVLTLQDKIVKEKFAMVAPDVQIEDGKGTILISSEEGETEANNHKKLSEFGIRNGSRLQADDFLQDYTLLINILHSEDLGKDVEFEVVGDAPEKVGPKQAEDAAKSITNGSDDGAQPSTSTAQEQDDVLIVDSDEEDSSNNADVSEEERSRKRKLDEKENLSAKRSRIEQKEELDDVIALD
Sequence (Q9UBE0 whole entry partner): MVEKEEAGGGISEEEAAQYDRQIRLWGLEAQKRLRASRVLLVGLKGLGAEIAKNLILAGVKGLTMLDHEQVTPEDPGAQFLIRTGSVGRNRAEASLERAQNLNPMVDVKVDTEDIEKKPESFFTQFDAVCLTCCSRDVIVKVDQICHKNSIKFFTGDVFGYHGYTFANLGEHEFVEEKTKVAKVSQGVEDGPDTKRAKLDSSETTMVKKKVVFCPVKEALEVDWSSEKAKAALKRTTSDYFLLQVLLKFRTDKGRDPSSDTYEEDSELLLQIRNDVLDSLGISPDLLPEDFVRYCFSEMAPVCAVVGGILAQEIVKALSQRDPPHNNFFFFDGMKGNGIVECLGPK
EXPERIMENTAL_PROTOCOL: SAE HTRF enzyme assay
Type: biochemical
ASSAY_CONTEXT: class symbols A/B/C
pIC50: −log10 of the molar value.
Could you please report measured pIC50 for the items listed next?

Param item = NS(=O)(=O)OC[C@H]1C[C@@H](Nc2ncncc2C(=O)c2cc(Cc3ccc(C(F)(F)F)o3)cs2)C[C@@H]1O [I-119] ; retrieve measured pIC50.
> 8.00

Param item = NS(=O)(=O)OC[C@H]1C[C@@H](Nc2ncncc2C(=O)c2cc([C@H](O)c3cccc(Cl)c3)c(Cl)s2)C[C@@H]1O (single isomer, unassigned) [I-9a] ; retrieve measured pIC50.
> 8.00

Param item = C[C@@H]1CCCN(Cc2csc(C(=O)c3cncnc3N[C@@H]3C[C@H](COS(N)(=O)=O)[C@@H](O)C3)c2)C1 (mixture of isomers) [I-225] ; retrieve measured pIC50.
6.00 to 7.00

Param item = NS(=O)(=O)OC[C@H]1C[C@@H](Nc2ncncc2C(=O)c2cc(C3OCCc4ccc(Cl)cc43)cs2)C[C@@H]1O (single isomer, unassigned) [I-261b] ; retrieve measured pIC50.
> 8.00

Param item = N[C@@H](c1cccc(Br)n1)c1cc(C(=O)c2cncnc2N[C@@H]2C[C@H](COS(N)(=O)=O)[C@@H](O)C2)sc1Cl (single isomer, unassigned) [I-18a] ; retrieve measured pIC50.
7.00 to 8.00

Param item = NS(=O)(=O)OCC1CC(Nc2ncncc2C(=O)c2cc(C(O)c3cc(Br)ccc3F)cs2)CC1O (mixture of isomers) [I-19] ; retrieve measured pIC50.
> 8.00

Param item = CN(C)Cc1sc(C(=O)c2cncnc2N[C@@H]2C[C@H](COS(N)(=O)=O)[C@@H](O)C2)cc1Cc1cccc(Cl)c1 [I-77] ; retrieve measured pIC50.
> 8.00

Param item = NS(=O)(=O)OC[C@H]1C[C@@H](Nc2ncncc2C(=O)c2cc(Cn3cc(C(F)(F)F)cn3)cs2)C[C@@H]1O [I-130] ; retrieve measured pIC50.
> 8.00

Param item = NS(=O)(=O)OC[C@H]1C[C@@H](Nc2ncncc2C(=O)c2cc(C(O)c3cccc(Cl)n3)cs2)C[C@@H]1O (single isomer, unassigned) [I-29b] ; retrieve measured pIC50.
> 8.00

Param item = NS(=O)(=O)OC[C@H]1C[C@@H](Nc2ncncc2C(=O)c2cc(Cl)c([C@H](O)c3cccc(Cl)c3)s2)C[C@@H]1O (single isomer, unassigned) [I-151a] ; retrieve measured pIC50.
7.00 to 8.00

Param item = NS(=O)(=O)OC[C@H]1C[C@@H](Nc2ncncc2C(=O)c2cc([C@@H]3OCCc4ccc(F)cc43)cs2)C[C@@H]1O (single isomer, unassigned) [I-267a] ; retrieve measured pIC50.
7.00 to 8.00

Param item = Cc1sc(C(=O)c2cncnc2N[C@@H]2C[C@H](COS(N)(=O)=O)[C@@H](O)C2)cc1[C@H](N)c1cccc(Cl)c1 (single isomer, unassigned) [I-6a] ; retrieve measured pIC50.
> 8.00

====

SYSTEM: recombinant human SAE enzyme (Homo sapiens (Human), UniProt Q9UBT2)
EXPERIMENTAL_PROTOCOL: SAE HTRF enzyme assay
Type: biochemical
ASSAY_CONTEXT: Concentration 0.111 μM
Could you please report measured Percent Inhibition for the items listed next?
// no unit string in output, number only

Quick check: Percent Inhibition on recombinant human SAE enzyme (Homo sapiens (Human), UniProt Q9UBT2), item NS(=O)(=O)OC[C@H]1C[C@@H](Nc2ncncc2C(=O)c2cc([C@H](O)c3cccc(Cl)c3)cs2)C[C@@H]1O (single isomer, unassigned) [I-4b] ?
100

Quick check: Percent Inhibition on recombinant human SAE enzyme (Homo sapiens (Human), UniProt Q9UBT2), item NS(=O)(=O)OC[C@H]1C[C@@H](Nc2ncncc2C(=O)c2cc([S@+]([O-])c3cccc(Cl)c3)c(Cl)s2)C[C@@H]1O ?
98

Quick check: Percent Inhibition on recombinant human SAE enzyme (Homo sapiens (Human), UniProt Q9UBT2), item NC(c1cccc(Cl)n1)c1cc(C(=O)c2cncnc2NC2CC(O)C(COS(N)(=O)=O)C2)sc1Cl (mixture of isomers) ?
98

Quick check: Percent Inhibition on recombinant human SAE enzyme (Homo sapiens (Human), UniProt Q9UBT2), item NS(=O)(=O)OC[C@H]1C[C@@H](Nc2ncncc2C(=O)c2cc(C3NCCc4ccc(Cl)cc43)c(Cl)s2)C[C@@H]1O (single isomer, unassigned) [I-255b] ?
100

Quick check: Percent Inhibition on recombinant human SAE enzyme (Homo sapiens (Human), UniProt Q9UBT2), item NS(=O)(=O)OC[C@H]1C[C@@H](Nc2ncncc2C(=O)c2cc(CNCc3ccccc3)cs2)C[C@@H]1O ?
31

Quick check: Percent Inhibition on recombinant human SAE enzyme (Homo sapiens (Human), UniProt Q9UBT2), item Cc1oc(C(=O)c2cncnc2N[C@@H]2C[C@H](COS(N)(=O)=O)[C@@H](O)C2)cc1C1OCCc2ccccc21 (single isomer, unassigned) [I-272b] ?
97

====

SYSTEM: recombinant human SAE enzyme (Homo sapiens (Human))
EXPERIMENTAL_PROTOCOL: SAE HTRF enzyme assay
Assay type: biochemical
ASSAY_CONTEXT: class symbols A/B/C
Could you please report measured IC50 for the items listed next?

Param item = NS(=O)(=O)OC[C@H]1C[C@@H](Nc2ncncc2C(=O)c2cc(C3(c4cccc(Cl)c4)CCCO3)cs2)C[C@@H]1O (single isomer, unassigned) [I-20a] ; retrieve measured IC50.
10 to 100 nM

Param item = CC(O)(c1cccc(Cl)c1)c1cc(C(=O)c2cncnc2N[C@@H]2C[C@H](COS(N)(=O)=O)[C@@H](O)C2)sc1Cl (single isomer, unassigned) [I-102b] ; retrieve measured IC50.
< 10 nM

Param item = NS(=O)(=O)OC[C@H]1C[C@@H](Nc2ncncc2C(=O)c2cc([C@@]3(c4cccc(Cl)c4)CCCN3)cs2)C[C@@H]1O (single isomer, unassigned) [I-38b] ; retrieve measured IC50.
< 10 nM

Param item = Cc1sc(C(=O)c2cncnc2NC2CC(O)C(COS(N)(=O)=O)C2)cc1C(N)c1cccc(Cl)c1 (mixture of isomers) [I-6] ; retrieve measured IC50.
< 10 nM

Param item = N[C@@H](c1cccc(Cl)c1)c1cc(C(=O)c2cncnc2N[C@@H]2C[C@H](COS(N)(=O)=O)[C@@H](O)[C@H]2O)sc1Cl (single isomer, unassigned) [I-14b] ; retrieve measured IC50.
< 10 nM

Param item = N[C@H](c1cccc(Br)c1)c1cc(C(=O)c2cncnc2N[C@@H]2C[C@H](COS(N)(=O)=O)[C@@H](O)[C@H]2O)sc1Cl (single isomer, unassigned) [I-24a] ; retrieve measured IC50.
< 10 nM

Param item = NS(=O)(=O)OC[C@H]1C[C@@H](Nc2ncncc2C(=O)c2cc(Cc3ccccc3)c(Cl)s2)[C@@H](F)[C@@H]1O [I-162] ; retrieve measured IC50.
10 to 100 nM

Param item = NS(=O)(=O)OC[C@H]1C[C@@H](Nc2ncncc2C(=O)c2cc([C@@H]3NCCc4ccc(Br)cc43)c(Cl)s2)C[C@@H]1O (single isomer, unassigned) [I-251a] ; retrieve measured IC50.
< 10 nM

Param item = NS(=O)(=O)OC[C@H]1C[C@@H](Nc2ncncc2C(=O)c2cc(S(=O)(=O)c3cccc(Cl)c3)c(Cl)s2)C[C@@H]1O [I-203] ; retrieve measured IC50.
10 to 100 nM

Param item = Cc1sc(C(=O)c2cncnc2N[C@@H]2C[C@H](COS(N)(=O)=O)[C@@H](O)C2)cc1Sc1cccc(Cl)c1 [I-143] ; retrieve measured IC50.
< 10 nM

Param item = NC(c1cccc(Br)n1)c1cc(C(=O)c2cncnc2NC2CC(O)C(COS(N)(=O)=O)C2)sc1Cl (mixture of isomers) [I-18] ; retrieve measured IC50.
< 10 nM

Param item = NS(=O)(=O)OC[C@H]1C[C@@H](Nc2ncncc2C(=O)c2cc([C@H](O)c3cc(Br)ccc3F)cs2)C[C@@H]1O (single isomer, unassigned) [I-19b] ; retrieve measured IC50.
< 10 nM

====

Could you please report measured Percent Inhibition for the items listed next?
SYSTEM: recombinant human SAE enzyme (Homo sapiens (Human))
EXPERIMENTAL_PROTOCOL: SAE HTRF enzyme assay
Type: biochemical
ASSAY_CONTEXT: Concentration 0.111 μM
// no unit string in output, number only

Param item = N[C@H](c1cccc(Cl)c1)c1csc(C(=O)c2cncnc2N[C@@H]2C[C@H](COS(N)(=O)=O)[C@@H](O)C2)c1 (mixture of isomers) [I-36] ; retrieve measured Percent Inhibition.
100

Param item = NS(=O)(=O)OC[C@H]1C[C@@H](Nc2ncncc2C(=O)c2cc([C@@]3(C4=CCCCC4)CCCO3)cs2)C[C@@H]1O (mixture of isomers) ; retrieve measured Percent Inhibition.
96

Param item = NS(=O)(=O)OC[C@H]1C[C@@H](Nc2ncncc2C(=O)c2cc([C@H](O)C3CCCCC3)c(Cl)s2)C[C@@H]1O (mixture of isomers) ; retrieve measured Percent Inhibition.
88

Param item = CN[C@@H](c1cccc(Cl)c1)c1cc(C(=O)c2cncnc2N[C@@H]2C[C@H](COS(N)(=O)=O)[C@@H](O)C2)sc1Cl.CN[C@H](c1cccc(Cl)c1)c1cc(C(=O)c2cncnc2N[C@@H]2C[C@H](COS(N)(=O)=O)[C@@H](O)C2)sc1Cl (mixture of isomers) ; retrieve measured Percent Inhibition.
97

Param item = C[C@@H]1CCCN(Cc2csc(C(=O)c3cncnc3N[C@@H]3C[C@H](COS(N)(=O)=O)[C@@H](O)C3)c2)C1 (mixture of isomers) ; retrieve measured Percent Inhibition.
33

Param item = Cc1sc(C(=O)c2cncnc2N[C@@H]2C[C@H](COS(N)(=O)=O)[C@@H](O)C2)cc1[C@H]1OCC(F)(F)c2ccc(Cl)nc21 (mixture of isomers) [I-260] ; retrieve measured Percent Inhibition.
98

Param item = NS(=O)(=O)OC[C@H]1C[C@@H](Nc2ncncc2C(=O)c2cc([C@@]3(c4ccccc4)CCCO3)cs2)C[C@@H]1O (single isomer, unassigned) [I-32a] ; retrieve measured Percent Inhibition.
98

Param item = CC(N)(c1cccc(Cl)c1)c1csc(C(=O)c2cncnc2N[C@@H]2C[C@H](COS(N)(=O)=O)[C@@H](O)[C@H]2O)c1 (single isomer, unassigned) [I-8b] ; retrieve measured Percent Inhibition.
99

Param item = CC(N)(c1cccc(Cl)c1)c1csc(C(=O)c2cncnc2N[C@@H]2C[C@H](COS(N)(=O)=O)[C@@H](O)[C@H]2O)c1 (single isomer, unassigned) [I-8a] ; retrieve measured Percent Inhibition.
96

Param item = Cc1sc(C(=O)c2cncnc2N[C@@H]2C[C@H](COS(N)(=O)=O)[C@@H](O)[C@@H]2F)cc1[C@@H]1OCCc2ccccc21 (single isomer, unassigned) [I-271a] ; retrieve measured Percent Inhibition.
99

Param item = N[C@H](c1cccc(Cl)c1)c1cc(C(=O)c2cncnc2N[C@@H]2C[C@H](COS(N)(=O)=O)[C@@H](O)C2)sc1Cl (single isomer, unassigned) [I-15a] ; retrieve measured Percent Inhibition.
66

Param item = Cc1sc(C(=O)c2cncnc2NC2CC(O)C(COS(N)(=O)=O)C2)cc1C1OCCc2ccccc21 (mixture of isomers) ; retrieve measured Percent Inhibition.
100

Param item = CC(N)(c1cccc(Cl)c1)c1csc(C(=O)c2cncnc2NC2CC(O)C(COS(N)(=O)=O)C2)c1 (mixture of isomers) ; retrieve measured Percent Inhibition.
99

Param item = C[C@](O)(c1cccc(Cl)c1)c1coc(C(=O)c2cncnc2N[C@@H]2C[C@H](COS(N)(=O)=O)[C@@H](O)C2)c1 (single isomer, unassigned) [I-30b] ; retrieve measured Percent Inhibition.
88

Param item = COc1ccccc1[C@@H](O)c1cc(C(=O)c2cncnc2N[C@@H]2C[C@H](COS(N)(=O)=O)[C@@H](O)C2)sc1Cl (mixture of isomers) ; retrieve measured Percent Inhibition.
97

Param item = Cc1sc(C(=O)c2cncnc2N[C@@H]2C[C@H](COS(N)(=O)=O)[C@@H](O)C2)cc1[C@H]1NCCc2ccc(Br)cc21 (single isomer, unassigned) [I-248a] ; retrieve measured Percent Inhibition.
99

Param item = Cc1sc(C(=O)c2cncnc2N[C@@H]2C[C@H](COS(N)(=O)=O)[C@@H](O)C2)cc1[S@+]([O-])c1cccc(Cl)c1 (single isomer, unassigned) [I-28a] ; retrieve measured Percent Inhibition.
66

Param item = NS(=O)(=O)OC[C@H]1C[C@@H](Nc2ncncc2C(=O)c2cc([C@@]3(C4CC4)CCCO3)cs2)C[C@@H]1O (mixture of isomers) ; retrieve measured Percent Inhibition.
25

Param item = CN[C@H](c1cccc(Cl)c1)c1csc(C(=O)c2cncnc2N[C@@H]2C[C@H](COS(N)(=O)=O)[C@@H](O)C2)c1 (single isomer, unassigned) [I-47b] ; retrieve measured Percent Inhibition.
99

Param item = CN1Cc2ccc(Cl)cc2[C@@H]1c1csc(C(=O)c2cncnc2N[C@@H]2C[C@H](COS(N)(=O)=O)[C@@H](O)C2)c1 (single isomer, unassigned) [I-265a] ; retrieve measured Percent Inhibition.
99

Param item = NS(=O)(=O)OC[C@H]1C[C@@H](Nc2ncncc2C(=O)c2cc([C@H](O)c3cccc(Cl)c3)cs2)C[C@@H]1O (single isomer, unassigned) [I-4a] ; retrieve measured Percent Inhibition.
99

Param item = NS(=O)(=O)OC[C@H]1C[C@@H](Nc2ncncc2C(=O)c2cc([C@H](O)c3cccc(Cl)n3)c(Cl)s2)C[C@@H]1O (single isomer, unassigned) [I-2a] ; retrieve measured Percent Inhibition.
99
